I'd appreciate it if you could supply Level values for the items below.
Tested on: Rattus norvegicus
Assay: Alanine transaminase level was measured in rats after administration intravenously at a dose(bolus) of 20 umol/kg
Type: functional, organism-based
Parameters: unit not given here
Answers are plain numbers.

In [3]: df
Out[3]:
                                   compound  reading
0  NCCCCC(NC(=O)CN(CC1(c2ccccc2)CCCC1)C(=O)CCc1ccccc1)B(O)O (configuration not stated)       66
1  NCCCCC(NC(=O)CN(CCc1ccccc1)C(=O)CCc1ccccc1)B(O)O (configuration not stated)       60
2  N/C=N/CCCC(NC(=O)CN(CCc1ccccc1)C(=O)CCc1ccccc1)B(O)O (configuration not stated)       55
3  Cc1cc(C)cc(C(C)(C)CN(CC(=O)NC(CCC/N=C/N)B(O)O)C(=O)CCc2ccccc2)c1 (configuration not stated)       70
4  CC(C)(CN(CC(=O)NC(CCCN=C(N)N)B(O)O)C(=O)CCc1ccccc1)c1ccccc1 (configuration not stated)      211
5  N/C=N/CCCC(NC(=O)CN(CC1(c2ccccc2)CC1)C(=O)CCc1ccccc1)B(O)O (configuration not stated)       66

Problem: Entry N=C(N)NCCCC(NC(=O)CN(CC1(c2ccccc2)CC1)C(=O)CCc1ccccc1)B(O)O (configuration not stated) , system Rattus norvegicus: what Level was measured?
Solution: 89
